Source listed as paper PMC11259706.

Molecular target: full-length PP5 (Homo sapiens)
Construct: His-tag with TEV cleavage site (N, cleaved yes); made in house; host or cells: Escherichia coli BL21 (DE3)
Sequence (P53041 whole entry): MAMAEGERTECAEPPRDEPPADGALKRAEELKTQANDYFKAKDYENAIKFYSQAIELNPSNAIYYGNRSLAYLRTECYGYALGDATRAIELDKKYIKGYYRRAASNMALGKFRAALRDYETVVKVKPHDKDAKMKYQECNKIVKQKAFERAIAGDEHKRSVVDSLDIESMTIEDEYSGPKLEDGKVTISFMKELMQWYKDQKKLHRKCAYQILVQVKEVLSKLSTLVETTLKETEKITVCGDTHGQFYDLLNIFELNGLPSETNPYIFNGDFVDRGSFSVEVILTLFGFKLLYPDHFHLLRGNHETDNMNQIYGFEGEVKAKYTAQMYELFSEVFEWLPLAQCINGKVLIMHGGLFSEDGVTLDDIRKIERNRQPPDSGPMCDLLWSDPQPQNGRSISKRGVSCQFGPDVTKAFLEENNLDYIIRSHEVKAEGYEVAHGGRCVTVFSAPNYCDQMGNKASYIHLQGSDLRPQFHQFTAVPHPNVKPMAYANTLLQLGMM
Test: FP competition studies
Format: binding
Details: read-out: Ki, FP competition (truncations and alanine scan)
Where no end group is shown, it is not given here.

{"substance": "Ac-GSGPTAEEVD [Hsp70 peptide, P5 isoleucine mutation]", "Ki": "~13.6 µM"}
